From: PubChem BioAssay AID434987

test system: M. tuberculosis H37Rv growth inhibition with meropenem; assay: dose response, H37Rv, with and without meropenem (AID 434987); conditions: measured here: IC90 with meropenem;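 further: growth over 7 days at 37 °C before Alamar Blue read on day 9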
QUANTITY NAME: IC90

{"COMPOUND": "CCN(CC)C(=O)Cn1cc(C(=O)C(=O)N2CCN(c3ccccc3)CC2)c2ccccc21", "QUANTITY NAME": "IC90", "MEASURED": "> 100 µM"}
{"COMPOUND": "Cc1cc(C)cc(NC(=O)c2cc(Cl)sc2Cl)c1", "QUANTITY NAME": "IC90", "MEASURED": "7.73 µM"}
{"COMPOUND": "C/C(=N\\NC(=S)Nc1ccccc1C)c1ccc(O)cc1", "QUANTITY NAME": "IC90", "MEASURED": "7.97 µM"}
{"COMPOUND": "C#C[C@]1(O)CC[C@H]2[C@@H]3CCC4=C(CCC(=O)C4)[C@H]3CC[C@@]21C", "QUANTITY NAME": "IC90", "MEASURED": "> 100 µM"}
{"COMPOUND": "O=C(Cc1cccc2ccccc12)N/N=C/c1ccc(OC(=O)/C=C/c2ccco2)cc1", "QUANTITY NAME": "IC90", "MEASURED": "> 100 µM"}
{"COMPOUND": "O=C(CCSc1ccccc1)Nc1nc2c(s1)CCCC2", "QUANTITY NAME": "IC90", "MEASURED": "> 100 µM"}
{"COMPOUND": "CCCCCNCc1cccc(Br)c1", "QUANTITY NAME": "IC90", "MEASURED": "> 100 µM"}
{"COMPOUND": "CCOC(=O)c1cc(-c2ccccc2)sc1NC(=O)C(C)N1C(=O)NC(C)(c2ccc(Cl)cc2)C1=O (stereo not drawn)", "QUANTITY NAME": "IC90", "MEASURED": "> 100 µM"}
{"COMPOUND": "CC(=O)C1=C(C)NC(SCC(=O)c2ccccc2)=C(C#N)C1CC(C)C (stereo not drawn)", "QUANTITY NAME": "IC90", "MEASURED": "> 100 µM"}
{"COMPOUND": "COc1cc(CNCCO)cc(Br)c1OCc1ccccc1Cl", "QUANTITY NAME": "IC90", "MEASURED": "52.7 µM"}
{"COMPOUND": "CCOc1ccc(-c2nnc(-c3ccc(OC)cc3)o2)cc1", "QUANTITY NAME": "IC90", "MEASURED": "> 100 µM"}
{"COMPOUND": "O=C1NC(c2ccc(Br)cc2)Nc2sc3c(c21)CCC3 (stereo not drawn)", "QUANTITY NAME": "IC90", "MEASURED": "> 100 µM"}
{"COMPOUND": "O=c1oc(-c2cccs2)nc2sc3c(c12)CCCC3", "QUANTITY NAME": "IC90", "MEASURED": "29.7 µM"}
{"COMPOUND": "Cc1cc(C(=O)CN2C(=O)NC(c3ccccc3)(c3ccccc3)C2=O)c(C)n1Cc1ccccc1", "QUANTITY NAME": "IC90", "MEASURED": "> 100 µM"}
{"COMPOUND": "N#Cc1c(-c2cccs2)cc(-c2ccccn2)nc1N", "QUANTITY NAME": "IC90", "MEASURED": "> 100 µM"}
{"COMPOUND": "CCOC(=O)CSc1nnc(CNC(=O)c2cccs2)n1CCc1ccccc1", "QUANTITY NAME": "IC90", "MEASURED": "49.5 µM"}
{"COMPOUND": "O=C(Nc1nc(-c2ccc3c(c2)OCCO3)cs1)c1ccc(S(=O)(=O)N2CCCCC2)cc1", "QUANTITY NAME": "IC90", "MEASURED": "> 100 µM"}
{"COMPOUND": "O=C(/C=C/c1ccccn1)c1cc(Br)ccc1O", "QUANTITY NAME": "IC90", "MEASURED": "45.1 µM"}
{"COMPOUND": "CCc1cc2c(Sc3nc4ccccc4s3)ncnc2s1", "QUANTITY NAME": "IC90", "MEASURED": "> 100 µM"}
{"COMPOUND": "COc1cc(C(=O)Oc2ccccc2/C=N/NC(=O)c2ccc(C)c(Cl)c2)cc(OC)c1OC", "QUANTITY NAME": "IC90", "MEASURED": "> 3.13 µM"}
{"COMPOUND": "COc1c(NC(C)=O)c2ccccc2c2ccccc12", "QUANTITY NAME": "IC90", "MEASURED": "> 100 µM"}
{"COMPOUND": "O=c1[nH]c(CN(CCO)CCO)nc2c1C1(CCCCC1)Cc1ccccc1-2", "QUANTITY NAME": "IC90", "MEASURED": "> 100 µM"}
{"COMPOUND": "COc1ccc2nc(SCc3cccc(C)c3)nc(C)c2c1", "QUANTITY NAME": "IC90", "MEASURED": "> 100 µM"}
